- Protocol Text: Inhibitory activity against Varicella Zoster Virus (VZV) protease was determined using quenched fluorescence assay
pIC50: −log10 of the molar value.
pIC50 values by entry

Given Smiles: Cc1csc2nc([C@H](C)NC(=O)/C=C/c3ccccc3Br)oc(=O)c12
pIC50: 7.41

Given Smiles: Cc1csc2nc([C@H](C)NC(=O)/C=C/c3ccc([N+](=O)[O-])s3)oc(=O)c12
pIC50: 7.27

Given Smiles: Cc1csc2nc([C@H](C)NC(=O)/C=C/c3cccc(Cl)c3)oc(=O)c12
pIC50: 7.38

Given Smiles: COc1cc(/C=C/C(=O)N[C@@H](C)c2nc3scc(C)c3c(=O)o2)cc(OC)c1
pIC50: 7.68

Given Smiles: Cc1csc2nc([C@H](C)NC(=O)/C=C/c3ccsc3Br)oc(=O)c12
pIC50: 7.29

Given Smiles: Cc1csc2nc([C@H](C)NC(=O)/C=C/c3ccccc3[N+](=O)[O-])oc(=O)c12
pIC50: 7.12
